Below, each entry is listed with its recorded EC50.
Tested on: A2058 (human metastatic melanoma cells, Rb-negative)
Experiment: CellTiter-Glo cellular proliferation assay, A2058
Assay type: cell-based
Conditions: A2058, 144 h, six days
Provide the reading as a plain figure in nM.

CC(C)N1CCN(c2ccc(Nc3ncc4cc5n(c4n3)C3(CCCCC3)CNC5=O)nc2)CC1 ... 2690

The record that follows has no EC50 shown yet.
*Q* Query: EC50; subject: O=C1NCC2(CCCCC2)n2c1cc1cnc(Nc3ccc(N4CCNCC4)cn3)nc12
*A* 2610

* * *

Tested on: H69 (human small cell lung cancer, Rb-negative) cells
Experiment: CellTiter-Glo cellular proliferation assay, H69
Assay type: cell-based
Settings: NCI-H69, 96 h, four days
pEC50: −log10 of the molar value.
The following molecules are shown together with reported pEC50 values.

Consider the worked cases shown below.
O=C1NCC2(CCCCC2)n2c1cc1cnc(Nc3ccc(N4CCC(N5CCOCC5)CC4)cn3)nc12 ... < 5.52
O=C1NCC2(CCCCC2)n2c1cc1cnc(Nc3ccc(N4CCNCC4)cn3)nc12 ... < 5.52
CN1CCN(c2ccc(Nc3ncc4cc5n(c4n3)C3(CCCCC3)CNC5=O)nc2)CC1 ... < 5.52

Okay, next one:
*Q* Consider the molecule CC(C)N1CCN(c2ccc(Nc3ncc4cc5n(c4n3)C3(CCCCC3)CNC5=O)nc2)CC1 and give its measured pEC50.
*A* 5.53
